Assay read-out pIC50 on BRD3 (Homo sapiens (Human), UniProt Q15059); records merged from the literature.
Answers are plain numbers, as −log10 of the molar value.

Here's what some known entries look like.
Query: Give pIC50 for the following compound: Cc1cc(N2C(=O)c3nc(C4CCOCC4)n(C(C)C)c3[C@H]2c2ccc(Cl)cc2)cn2c(C)nnc12
Result: 7.85

Query: Give pIC50 for the following compound: CCc1nn(C2CC2)c2c1C(c1ccc(Cl)cc1)N(c1cc(C)c3nnc(C)n3c1)C2=O (centres unmarked)
Result: 7.54

Query: Give pIC50 for the following compound: Cc1cc(N2C(=O)c3ccn(C)c3C2c2ccccc2)cn(C)c1=O (centres unmarked)
Result: 6.65

Query: Give pIC50 for the following compound: Cc1cc(N2C(=O)c3nn(C4CC4)c(C)c3[C@H]2c2ccc(Cl)cc2)cn(C)c1=O
Result: 7.37

Query: Give pIC50 for the following compound: COc1ccc(-c2nc3c(n2C(C)C)C(c2ccc(Cl)cc2)N(c2cc(OC)c4nnc(C)n4c2)C3=O)cn1 (centres unmarked)
Result: 7.20

Query: Give pIC50 for the following compound: CNC(=O)Cn1cc(C)c2c1C(c1ccc(Cl)cc1)N(c1cc(C)c3nnc(C)n3c1)C2=O (centres unmarked)
Result: 7.09

For each of the compounds below, state pIC50.
1. COc1ncccc1-c1nc2c([nH]1)C(c1ccc(Cl)cc1)N(c1cc(C)c3nnn(C)c3n1)C2=O (centres unmarked)
2. CCn1nc(C)c2c1C(=O)N(c1cc(C)c3nnc(C)n3c1)[C@@H]2c1ccc(F)cc1F

Result:
1: 7.80; 2: 7.51
